target: Focal adhesion kinase 1 (Homo sapiens); assay: small-molecule microarray binders of FAK, primary screen, biochemical, 635/667 nm fluorescence, BSA, DTT (AID 1130); conditions: PTK2 binding, 635 nm fluorescence, higher = more signal;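 further: composite of spot emission at 667 nm and signal to noise over triplicate slides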
The label depends only on composite z-score: True if it is at least 0.5, False if it is smaller.

[
  {
    "molecule": "COc1ccc([Si](C)(C)[C@H]2[C@H](CCn3cc([C@H](O)c4ccccc4)nn3)O[C@@]3(C(=O)N(Cc4cccc(N5CCOC5=O)c4)c4ccccc43)[C@@H]2C)cc1",
    "qualitativeLabel": "False"
  },
  {
    "molecule": "[N-]=[N+]=Nc1ccccc1[C@H]1OC(c2ccc(OCCCO)cc2)=N[C@@]1(Cc1ccccc1)C(=O)O",
    "qualitativeLabel": "False"
  },
  {
    "molecule": "COC(=O)[C@@]1(Cc2ccc(OC)cc2)[C@H]2c3cc(C(=O)N4CCCC4)n(Cc4ccc(OC)c(OC)c4)c3C[C@H]2CN1C(=O)c1ccccc1",
    "qualitativeLabel": "False"
  },
  {
    "molecule": "COCCOC(=O)N1C(=O)[C@@]2(c3cc(C#CCCO)ccc31)[C@H](C(=O)Nc1nc3ccccc3s1)[C@H]1C(=O)O[C@H](c3ccccc3)[C@H](c3ccccc3)N1[C@@H]2c1ccc(OCCO)cc1",
    "qualitativeLabel": "False"
  },
  {
    "molecule": "O=C(NCc1ccc(F)cc1)[C@H]1C[C@H]2C(=O)N[C@@H](Cc3ccccc3)C(=O)N2[C@H]1c1ccc(O)cc1",
    "qualitativeLabel": "False"
  },
  {
    "molecule": "O=C1NC(=O)C2C1C=CC(C(O)c1ccccc1)N2Nc1ccc(Cl)cc1Cl (stereo unspecified)",
    "qualitativeLabel": "False"
  },
  {
    "molecule": "CCCC[C@@H]1C[C@H]1[C@@H](NC(=O)c1ccco1)c1ccc(Cl)cc1",
    "qualitativeLabel": "True"
  },
  {
    "molecule": "COc1ccc(C(O)C2C=CC3C(=O)NC(=O)C3N2Nc2ccccn2)cc1 (stereo unspecified)",
    "qualitativeLabel": "False"
  },
  {
    "molecule": "CC[C@@H]1C=C(C(=O)O)[C@H](c2ccco2)N1S(=O)(=O)c1ccc(C)cc1",
    "qualitativeLabel": "True"
  },
  {
    "molecule": "COC(=O)[C@@]1(Cc2ccc(OC)cc2)[C@H]2c3cc(C(=O)N4CCCC4)n(Cc4ccsc4Br)c3C[C@H]2CN1C(=O)c1ccccc1",
    "qualitativeLabel": "True"
  },
  {
    "molecule": "C=CCOC(=O)[C@H]1[C@@H]2C(=O)O[C@@H](c3ccccc3)[C@@H](c3ccccc3)N2[C@@H](c2ccc(OCCOC(=O)[C@@H]3C[C@@H]4C(=O)N5CCC[C@H]5C(=O)N4[C@@H]3c3cccc(OCCO)c3)cc2)[C@]12C(=O)Nc1ccccc12",
    "qualitativeLabel": "True"
  },
  {
    "molecule": "COC(=O)c1c(CC[C@@H](CO)NC(=O)N[C@H](Cn2cc(Cc3ccccc3)nn2)C(C)C)oc(C(C)=O)c1C(=O)OC",
    "qualitativeLabel": "False"
  },
  {
    "molecule": "CO[C@H]1O[C@H](CO)[C@@H](OC(=O)Nc2ccc(Br)cc2)[C@H](OC(=O)c2cc3ccccc3[nH]2)[C@H]1OC(=O)c1cc2ccccc2[nH]1",
    "qualitativeLabel": "False"
  },
  {
    "molecule": "CN1C(=O)C2C=CC(C(O)C3CC=CCC3)N(NC(=O)OC(C)(C)C)C2C1=O (stereo unspecified)",
    "qualitativeLabel": "False"
  },
  {
    "molecule": "COCCOC(=O)N1C(=O)[C@@]2(c3cc(C#Cc4ccc(OC)cc4)ccc31)[C@H](C(=O)N1CCCCCCC1)[C@H]1C(=O)O[C@H](c3ccccc3)[C@H](c3ccccc3)N1[C@@H]2c1ccc(OCCO)cc1",
    "qualitativeLabel": "False"
  },
  {
    "molecule": "O=C1C2C=CC(C(O)C(c3ccccc3)c3ccccc3)N(n3cnnc3)C2C(=O)N1Cc1ccccc1 (stereo unspecified)",
    "qualitativeLabel": "True"
  },
  {
    "molecule": "NCCCCCNC(=O)[C@@H]1C[C@@H]2C(=O)NCC(=O)N2[C@@H]1c1ccc(O)cc1",
    "qualitativeLabel": "False"
  },
  {
    "molecule": "COCCOC(=O)N1C(=O)[C@@]2(c3cc(C#Cc4ccc(OC)cc4)ccc31)[C@H](c1ccc(O)cc1)N1[C@H](c3ccccc3)[C@H](c3ccccc3)OC(=O)[C@H]1[C@@H]2C(=O)NC[C@H](O)c1ccccc1",
    "qualitativeLabel": "False"
  },
  {
    "molecule": "CN1C(=O)C2C=CC(C(O)Cc3ccccc3)N(Nc3ccccc3)C2C1=O (stereo unspecified)",
    "qualitativeLabel": "False"
  },
  {
    "molecule": "COc1ccc(CCNC(=O)[C@@H]2c3ccccc3C(=O)N(C3Cc4ccccc4C3)[C@H]2c2ccc(CO)cc2)cc1",
    "qualitativeLabel": "True"
  }
]

// data source = PubChem BioAssay
